Test system: K4 kissing-loop RNA reporter;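 also: bound reporter read as fluorescence of individual clusters on recovered sequencing chips by microscopy, with normalized cluster intensities fitted with a binding model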
protocol_description: apparent KD of K4 kissing-loop reporter; higher = weaker reporter binding
settings: Eterna round: R107; input ligand: arginine 13.2 mM
Please note: yes (1) applies when apparent KD of K4 kissing-loop reporter is 400 nM or greater, and no (0) applies otherwise.

Some solved cases for reference:
CGCAGUGAUGUUGCUUAUAUUCUUGGUUAACGAGGACCGGUACGGCCGCCACUCGAUUUCUAUCUAUUCCAGUGUUAAUUUGAGU [JR_ExcTryptoA_Sub005] = yes (1)
GCUAUGGUAGGAAGGAGCGCUUGCUCGGUCAUAUGAGUGAUGUUCGAGACUGAGCAUUUAUAGCAGGUAGGUCGCCUACUAUAGC [Arginine B K4 9] = no (0)

Query string: Confirm if apparent KD of K4 kissing-loop reporter reported for the sequence AGUGGACGUGUUCGGAGUGAUGUUCCGGAUACCAGACACGAAAGUGUCCCUUGGCAGCCGGAGUGAUGUUCCGGCGUUCACUAAA [Omei KL Theo A Exc B v2] is 400 nM or above.
Result string: no (0)

Query string: Is apparent KD of K4 kissing-loop reporter for AUUAAUAACAGAGGAUAUGCAUUAUUAUUAUUUUUAAAUAAUAAAUGCAGUGAUGUUGCAUAUUAAGCAGAAGGCUGAUUUAUUU [JR_SSFMNB_Sub011] at or above 400 nM?
Result string: yes (1)

Query string: Textbook exercise: given the entry AGUGAUGUUGUGUUAUGCAAGGGAAGUGAUCGAGGACCGGUACGGCCGCCACUCGAGUGAUGAGUGAGUGAUGUUUGUUUAGGGA [ffgmullin] , state whether its apparent KD of K4 kissing-loop reporter is greater than or equal to 400 nM.
Result string: yes (1)

====

Tested on: MS2 coat protein
protocol_description: apparent KD of MS2 coat protein, switch OFF state (with FMN for OFF switches, without FMN for ON switches); designed switch direction (-1 OFF switch, 1 ON switch): 1; higher = weaker reporter binding
settings: FMN input: 0 or 200 uM; Eterna round: R93 (includes R88 designs)
endpoint: apparent KD of MS2 coat protein (nM)
Note: unit nM is implicit; provide only the numeric part.

These recorded examples may help you get a feel for the data.
AAAAACAUGGUGCAGGAUAUAUUAAUAGUCACAUGAGGAUCACCCAUGUUCAUUUAUAUGAACGAGUAGAAGGGCGAUGAAAAAA [Mat - Same state - Malcolm Mod - D111] = 410
AAAUAGUGCAUUAAGGAUAUGUCGCAUGACACAUGAGGAUCACCCAUGUGGUAACACAGAGGGUGGCAGAAGGUAGUGUGCAAAC [Mod 3 of Pariah 6 (Round1) by Hyphema] = 15.1
UACAGACAUGAGGAUCACCCAUGUAGAAUUAUGGGAGGAUAUACAAAGACGAGAGUCAGAGUAGAAGGCCUAGGAG [salish99-ss1-165] = 56.9
GAAAAACAUGAGGAUCACCCAUGUCAAUAUAUGGGAGGAUAUACAAAGACGAAAGUCAAAGUAGAAGGCCUAAAAG = 66.4
GACUGACAUGAGGAUCACCCAUGUAUUCAAACAUGAGGAUAUAUGACACGUCAUCGACGGAUAGAAGGCAUAGAUG [JR_SS001_Sub1210] = 205

Entry AUAAAACAUGAGGAUCACCCAUGUAGAAAUAUGGGAGGAUAUACAAAGACGAAAGUCGAGGUAGAAGGCCUAAAAG [Mat - Same State 1 - Meechl mod - D121] — recorded apparent KD of MS2 coat protein = 97.9

Briefly, apparent KD of MS2 coat protein measured for AAAAAAAAACGUGAGGAUAUGUGAAAAUUAACAUGAGGAUCACCCAUGUGAUAAAAAAAAAAAAAACAGAAGGUACAAAAAAAAAA [Same 2 again I have no idea] : 28.4

Measured apparent KD of MS2 coat protein of AGGAAACAUGAGGAUCACCCAUGUAAGAUAUACACAGGAUAUGCGAAAAGAAACAAAGAAGCAGAAGGGUGGAAAA [75%, Ex sub1, 11] : 31.6

Record AUAUAAAUAAGGUAGGAUAUACUAAAGUAAACAUGAGGAUCACCCAUGUGAAGAAAGAAACUCAUGUAGAAGGACCAUAUAUAUA [viburnum 2] , field apparent KD of MS2 coat protein: 248

What the record says about CUUAGACAUGAGGAUCACCCAUGUCGAACAAACAAAGGAUAUGGGAGCCGAAGACGGCUAUUAGAAGGUUGCAAAA [Anrioned] : apparent KD of MS2 coat protein is 26.4

Reported apparent KD of MS2 coat protein ( `AAAAAAAAAUCACAGGAUAUACAAAAAAAAACAUGAGGAUCACCCAUGUAAAAAAAAAAAAAAAAGUAGAAGGGUGAUCCAAAAAA` ) = 9.28

In plain terms, AUAACAACGUAUGAGGAUAUCCAUAAUAAAACAUGAGGAUCACCCAUGUGAAUAAAAUAACAAUGGGAGAAGGCAUACGUACAAU [SS 2 M 51] has a documented apparent KD of MS2 coat protein of 16

# credit: the supplement of paper PMC9170038
